Test system: HL-1
experimentalProtocol: Resazurine cytotoxicity assay (metabolic activity), HL-1
Assay type: cell-based, mouse
conditionParameters: Mus musculus; HL-1, 24 h, metabolic activity

[
  {
    "compound": "COC(=O)C(CC(C)C)Nc1cc(C)nc(Nc2ccc3ncccc3c2)n1 (centres unmarked)",
    "unitOfMeasurement": "µM",
    "EC50": 68
  },
  {
    "compound": "CCN(CC)CCCC(C)Nc1nccc(Nc2cnc3ccccc3c2)n1 (centres unmarked)",
    "unitOfMeasurement": "µM",
    "EC50": 60
  },
  {
    "compound": "CCN(CC)CCCC(C)Nc1nccc(Nc2ccc3[nH]ccc3c2)n1 (centres unmarked)",
    "unitOfMeasurement": "µM",
    "EC50": 56
  },
  {
    "compound": "CCN(CC)CCCC(C)Nc1nccc(Nc2ccc3[nH]c(C)cc3c2)n1 (centres unmarked)",
    "unitOfMeasurement": "µM",
    "EC50": 24
  },
  {
    "compound": "c1cc(NCc2ccc3[nH]ccc3c2)nc(NCc2ccc3[nH]ccc3c2)n1",
    "unitOfMeasurement": "µM",
    "EC50": 39
  }
]

* * *

A collection of molecules and their measured MVC
Tested on: HL-1
experimentalProtocol: Resazurine cytotoxicity assay (metabolic activity), HL-1
Assay type: cell-based, mouse
conditionParameters: HL-1, 24 h; maximal viability concentration
readoutKind: MVC

[
  {
    "molecule": "CCN(CC)CCCC(C)Nc1nccc(Nc2ccc3[nH]c(C)cc3c2)n1 (centres unmarked) [CWB021/01039]",
    "target": "HL-1",
    "measValue": "31.2 µM"
  },
  {
    "molecule": "CCN(CC)CCCC(C)Nc1nccc(Nc2ccc3[nH]ccc3c2)n1 (centres unmarked) [CWB024/02054]",
    "target": "HL-1",
    "measValue": "7.8 µM"
  },
  {
    "molecule": "c1cc(NCc2ccc3[nH]ccc3c2)nc(NCc2ccc3[nH]ccc3c2)n1 [CWB020/01041]",
    "target": "HL-1",
    "measValue": "15.6 µM"
  },
  {
    "molecule": "CCN(CC)CCCC(C)Nc1nccc(Nc2cnc3ccccc3c2)n1 (centres unmarked) [CWB022/02052]",
    "target": "HL-1",
    "measValue": "31.2 µM"
  },
  {
    "molecule": "COC(=O)C(CC(C)C)Nc1cc(C)nc(Nc2ccc3ncccc3c2)n1 (centres unmarked) [CWB018/01034]",
    "target": "HL-1",
    "measValue": "15.6 µM"
  }
]

* * *

experimentalProtocol: Caco2 monolayer permeation
Assay type: in vitro ADME, human
conditionParameters: human, Caco-2; Caco2 monolayers, 90 min, start concentration 50 µM

[
  {
    "molecule": "CCN(CC)CCCC(C)Nc1nccc(Nc2cnc3ccccc3c2)n1 (stereo not shown)",
    "Papp at 1.5 h, 50 µM": "8.9 ×10⁻⁶ cm/s"
  }
]

* * *

target: UniProt P10635
Sequence (P10635 whole entry): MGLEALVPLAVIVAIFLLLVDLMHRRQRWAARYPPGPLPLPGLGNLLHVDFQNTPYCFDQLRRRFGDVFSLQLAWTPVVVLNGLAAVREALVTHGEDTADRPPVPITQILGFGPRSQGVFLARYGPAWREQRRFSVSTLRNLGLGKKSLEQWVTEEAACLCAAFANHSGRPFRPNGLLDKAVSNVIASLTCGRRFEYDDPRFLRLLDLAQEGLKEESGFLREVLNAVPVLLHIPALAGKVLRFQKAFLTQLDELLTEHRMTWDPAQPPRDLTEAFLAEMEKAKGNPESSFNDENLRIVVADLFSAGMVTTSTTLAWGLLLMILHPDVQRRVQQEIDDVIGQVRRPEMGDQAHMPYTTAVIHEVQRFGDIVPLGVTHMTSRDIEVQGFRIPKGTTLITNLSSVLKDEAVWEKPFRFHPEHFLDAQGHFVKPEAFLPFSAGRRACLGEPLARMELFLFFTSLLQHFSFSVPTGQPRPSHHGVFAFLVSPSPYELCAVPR
experimentalProtocol: Inhibition of CYP2D6 activity
Format: biochemical
conditionParameters: read-out: CYP2D6 activity inhibited by
A collection of compounds and their measured inhibition at 10 µM

[
  {
    "compound": "CCN(CC)CCCC(C)Nc1nccc(Nc2ccc3[nH]c(C)cc3c2)n1 (centres unmarked)",
    "unitOfMeasurement": "%",
    "inhibition at 10 µM": 35
  },
  {
    "compound": "CCN(CC)CCCC(C)Nc1nccc(Nc2ccc3[nH]ccc3c2)n1 (centres unmarked)",
    "unitOfMeasurement": "%",
    "inhibition at 10 µM": 30
  }
]
